assay_method_text: Antiviral index, ratio of minimal toxic dose require to inhibit cellular DNA synthesis in primary rabbit kidney cells by 50% to minimal effective dose require to inhibit HSV1 KOS cytopathogenicity
Format: toxicity, cell-based
measured_quantity: selectivity ratio

compound CCc1cn([C@@H]2O[C@H](CO)[C@@H](O)[C@@H]2O)c(=O)[nH]c1=O , selectivity ratio observed: > 100

----------
Below, each entry is listed alongside its reported MIC.
assay_method_text: Antimetabolic activity against primary rabbit kidney cells assessed as inhibition of [methyl-3H]dThd incorporation into DNA after 16 hrs
Type: ADME, cell-based, Oryctolagus cuniculus
Use µg/mL as the unit, but write only the number.

# annotated cases, reported MIC shown
{"smiles": "O=c1ccn([C@@H]2O[C@H](CO)[C@@H](O)[C@@H]2O)c(=O)[nH]1", "units_symbol": "µg/mL", "MIC": 300}
{"smiles": "Cc1cn([C@@H]2O[C@H](CO)[C@@H](O)[C@@H]2O)c(=O)[nH]c1=O", "units_symbol": "µg/mL", "MIC": 300}

Lab note: next compound to report on.
compound Nc1ccn([C@@H]2O[C@H](CO)[C@@H](O)[C@@H]2O)c(=O)n1 , MIC observed: 0.1

----------
Test system: Human alphaherpesvirus 2
assay_method_text: Antiviral activity against Herpes simplex virus-2 196 infected in primary rabbit kidney cells assessed as inhibition of virus-induced cytopathogenicity treated immediately after virus adsorption measured 2 to 3 days after virus infection
Format: functional
test_context: Human alphaherpesvirus 2, 196
Below, each entry is listed alongside its reported MIC.
Use µg/mL as the unit, but write only the number.

# annotated cases, reported MIC shown
{"molecule": "Nc1ccn([C@@H]2O[C@H](CO)[C@@H](O)[C@@H]2O)c(=O)n1 [CYTARABINE]", "target_desc": "Human alphaherpesvirus 2", "reported_value": 0.03}
{"molecule": "CCc1cn([C@@H]2O[C@H](CO)[C@@H](O)[C@@H]2O)c(=O)[nH]c1=O", "target_desc": "Human alphaherpesvirus 2", "reported_value": 20}
{"molecule": "O=c1ccn([C@@H]2O[C@H](CO)[C@@H](O)[C@@H]2O)c(=O)[nH]1 [ARAURIDINE]", "target_desc": "Human alphaherpesvirus 2", "reported_value": 20}

molecule Cc1cn([C@@H]2O[C@H](CO)[C@@H](O)[C@@H]2O)c(=O)[nH]c1=O , MIC observed: 0.4

----------
Below, each entry is listed alongside its reported MIC.
assay_method_text: Antimetabolic activity against primary rabbit kidney cells assessed as inhibition of [2-14C]dUrd incorporation into DNA after 16 hrs
Assay type: ADME, cell-based, Oryctolagus cuniculus
Use mg/L as the unit, but write only the number.

{"compound": "Cc1cn([C@@H]2O[C@H](CO)[C@@H](O)[C@@H]2O)c(=O)[nH]c1=O", "MIC [mg/L]": 300}

Lab note: next compound to report on.
compound Nc1ccn([C@@H]2O[C@H](CO)[C@@H](O)[C@@H]2O)c(=O)n1 [CYTARABINE] , MIC observed: 0.05

----------
Below, each entry is listed alongside its reported MIC.
assay_method_text: Antimetabolic activity against primary rabbit kidney cells assessed as inhibition of [2-14C]dUrd incorporation into DNA after 16 hrs
Assay type: ADME, cell-based, Oryctolagus cuniculus

# annotated cases, reported MIC shown
{"smiles": "CCc1cn([C@@H]2O[C@H](CO)[C@@H](O)[C@@H]2O)c(=O)nc1N", "MIC": "> 200 mg/L"}
{"smiles": "O=c1ccn([C@@H]2O[C@H](CO)[C@@H](O)[C@@H]2O)c(=O)[nH]1", "MIC": "> 400 mg/L"}

compound CCc1cn([C@@H]2O[C@H](CO)[C@@H](O)[C@@H]2O)c(=O)[nH]c1=O , MIC observed: > 200 mg/L

Hey, just so you know, these numbers are from ChEMBL document CHEMBL3227988.
